>  <COMPOUND>
O=C(CCl)Nc1ccc(F)cc1

>  <melting point>
131 to 132 °C

$$$$
>  <COMPOUND>
C1CCCCCCCCCCCCCCC1

>  <melting point>
61 °C

$$$$
>  <COMPOUND>
Cc1c(C(=O)O)cnn1-c1ccc(Cl)cc1

>  <melting point>
201 to 202 °C

$$$$
>  <COMPOUND>
O=C1CCCCCN1Cc1ccccc1

>  <melting point>
56 to 57 °C

$$$$
>  <COMPOUND>
Cc1cc(Cc2cc(C)cc(C3(C)CCCCC3)c2O)c(O)c(C2(C)CCCCC2)c1

>  <melting point>
135 °C

$$$$
>  <COMPOUND>
CCc1ccc(C(c2ccc(CC)cc2)C(Cl)Cl)cc1

>  <melting point>
56 °C

$$$$
>  <COMPOUND>
CC(C)(C)OC(=O)Nc1ccsc1

>  <melting point>
138 to 140 °C

$$$$
>  <COMPOUND>
N#Cc1cc(Cl)ccc1Cl

>  <melting point>
130 to 132 °C

$$$$
>  <COMPOUND>
Cc1c(N/N=C2/C(=O)N(c3ccccc3)N=C2C(F)(F)F)c(=O)n(-c2ccccc2)n1C

>  <melting point>
185 °C

$$$$
>  <COMPOUND>
C#CC[C@H](NC(=O)OC(C)(C)C)C(=O)O

>  <melting point>
85.5 °C

$$$$
>  <COMPOUND>
NCCN(CCN)N(O)N=O

>  <melting point>
98 to 106 °C

$$$$
>  <COMPOUND>
C=C1C(=O)C2(C)CCC1C2(C)C (stereo not drawn)

>  <melting point>
45 °C

$$$$
>  <COMPOUND>
CCCCCCCCCCCCCCCCC(C)CC (stereo not drawn)

>  <melting point>
8 °C

$$$$

====

>  <COMPOUND>
O=C(O)CCCCCC1NC(=O)CS1 (stereo not drawn)

>  <melting point (°C)>
140

$$$$
>  <COMPOUND>
O=Nc1ccc(Nc2ccccc2)cc1

>  <melting point (°C)>
143

$$$$
>  <COMPOUND>
COC(=O)CC(CC(=O)OC)(c1cc(C)c(O)c(C)c1)c1cc(C)c(O)c(C)c1

>  <melting point (°C)>
199

$$$$
>  <COMPOUND>
C=Nc1cnn(-c2ncnc3c2cnn3C)c1C=COCC

>  <melting point (°C)>
155

$$$$
>  <COMPOUND>
Nc1ncccc1C=O

>  <melting point (°C)>
101

$$$$
>  <COMPOUND>
CCCCCCCCCCCCCCCCCC[Si](OC)(OC)OC

>  <melting point (°C)>
15

$$$$
>  <COMPOUND>
CCc1cc2c(cc1C(C)=O)C(C)(C)CCC2(C)C

>  <melting point (°C)>
46.5

$$$$
>  <COMPOUND>
COc1ccc(C(=O)Cl)cc1OC

>  <melting point (°C)>
71

$$$$
>  <COMPOUND>
CCCCC(O)(CCCC)CCCC

>  <melting point (°C)>
20

$$$$

====

Checkbox rule: melting point lower than 200 °C = 1; melting point not lower than 200 °C = 0.

>  <MOLECULE>
C=CCC1(C(C)CCC)C(=O)NC(=S)NC1=O (stereo unspecified)

>  <CLASS>
1

$$$$
>  <MOLECULE>
FC(F)(F)C1(F)C(F)(F)C(F)(F)C(F)(F)C(F)(F)C1(F)C(F)(F)F (stereo unspecified)

>  <CLASS>
1

$$$$
>  <MOLECULE>
N#CCc1nc2ccccc2s1

>  <CLASS>
1

$$$$
>  <MOLECULE>
c1cc2ccc3ccc4ccc5cccc6c(c1)c2c3c4c56

>  <CLASS>
0

$$$$
>  <MOLECULE>
CC(C)(C)c1cc(C(=O)O)cc(C(C)(C)C)c1

>  <CLASS>
1

$$$$
